Data credit: EPA's ToxValDB 9.5 (doi:10.2903/j.efsa.2012.2927)

- Tested on: Rattus norvegicus
- CONDITION LABEL: subchronic; duration: 90 days; oral; no effects
Recorded NOAEL values for a group of molecules are listed next.

# MOLECULE, NOAEL
records = [
    ("CCC(C)C=O (configuration not stated)", "> 219 mg/kg-day"),
    ("CCCCC(C)CCC(=O)O (configuration not stated)", "> 219 mg/kg-day"),
    ("CC(C)CCO", "> 219 mg/kg-day"),
]

NOAEL lookup needed for CCCC(=O)OCC(C)C [Isobutyl butyrate] , thanks.
> 219 mg/kg-day

NOAEL lookup needed for CCCC(=O)OCC(C)CC (configuration not stated) , thanks.
> 219 mg/kg-day

NOAEL lookup needed for CCC(C)COC(=O)CC(C)C (configuration not stated) [2-Methylbutyl isovalerate] , thanks.
> 219 mg/kg-day

NOAEL lookup needed for `CC(C)CC=O` , thanks.
> 219 mg/kg-day
